Origin of measurements: patent US10639284B2

systemName: human PD-L1 / Human PD-1 (Homo sapiens (Human))
test: Enzyme-Linked Immunosorbent Assay (ELISA), PD-1/PD-L1 binding
testContext: Table 2; plate-coated human PD-L1, biotinylated human PD-1; read-out: ELISA IC50
readout: IC50

Looking for the measured IC50 of "COC(=O)[C@H](CO)NCc1cc(Cl)c(O[C@H]2CCc3c(-c4ccccc4F)cccc32)cc1OCc1cncc(C#N)c1" , can you help?
< 100 nM

Looking for the measured IC50 of "N#Cc1cncc(COc2cc(O[C@H]3CCc4c(-c5cccc(OC(F)(F)F)c5F)cccc43)c(Cl)cc2CN[C@@H](CO)C(=O)O)c1" , can you help?
500 to 20000 nM

Looking for the measured IC50 of OC1CCN(Cc2cc(Cl)c(O[C@H]3CCc4c(-c5ccccc5F)cccc43)cc2OCc2ccc(C(F)(F)F)nc2)CC1 [Example 2.095] , can you help?
500 to 20000 nM

* * *

Kindly state pIC50 for each of the entries shown.
systemName: human PD-L1 / Human PD-1 (Homo sapiens (Human), UniProt Q9NZQ7)
Sequence (Q9NZQ7 19-239): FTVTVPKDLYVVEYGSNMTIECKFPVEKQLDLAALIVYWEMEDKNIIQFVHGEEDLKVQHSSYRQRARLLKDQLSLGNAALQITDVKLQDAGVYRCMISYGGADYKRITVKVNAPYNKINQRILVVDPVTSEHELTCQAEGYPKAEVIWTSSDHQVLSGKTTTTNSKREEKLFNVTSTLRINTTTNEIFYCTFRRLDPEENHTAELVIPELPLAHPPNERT
test: Enzyme-Linked Immunosorbent Assay (ELISA), PD-1/PD-L1 binding
testContext: Table 2; plate-coated human PD-L1, biotinylated human PD-1; read-out: ELISA IC50
Experimental: Plates were coated with 1 μg/mL of human PD-L1 (obtained from R&D) in PBS overnight at 4° C. The wells were then blocked with PBS containing 2% BSA in PBS (W/V) with 0.05% TWEEN-20 for 1 hour at 37° C. […] The absorbance was read at 450 nm using a micro-plate spectrophotometer. Compounds in Table 2 and Table 3 were prepared by methods as described in the Examples, and evaluated according to the assay below.
pIC50: −log10 of the molar value.

Looking for the measured pIC50 of "N#Cc1cncc(COc2cc(O[C@H]3CCc4c(-c5ccccc5F)cccc43)c(Cl)cc2CN2CC[C@@H](O)C2)c1" , can you help?
> 7.00

Looking for the measured pIC50 of "COc1ccc(-c2cccc3c2CC[C@@H]3Oc2cc(OCc3cncc(C#N)c3)c(CN[C@@H](CO)C(=O)O)cc2Cl)cc1" , can you help?
6.30 to 7.00

Looking for the measured pIC50 of CCOc1cc(O[C@H]2CCc3c(-c4ccccc4F)cccc32)c(Cl)cc1CN[C@H](CO)C(=O)O [Example 2.155] , can you help?
6.30 to 7.00

Looking for the measured pIC50 of "C[C@@H](O)[C@H](NCc1cc(Cl)c(O[C@H]2CCc3c(-c4ccccc4F)cccc32)cc1OCc1cncc(C#N)c1)C(=O)O" , can you help?
> 7.00

Looking for the measured pIC50 of "COc1cccc(-c2cccc3c2CC[C@@H]3Oc2cc(OCc3cncc(C#N)c3)c(CN3CCC(C(N)=O)CC3)cc2Cl)c1Cl" , can you help?
6.30 to 7.00

Looking for the measured pIC50 of "Cc1cccc(-c2cccc3c2CC[C@@H]3Oc2cc(OCc3cncc(C#N)c3)c(CN[C@@H](CO)C(=O)O)cc2Cl)c1" , can you help?
4.70 to 6.30

Looking for the measured pIC50 of COc1cccc(-c2cccc3c2CCC3CCOc2cc(OCc3cncc(C#N)c3)c(CN3CC(O)C3)cc2Cl)c1F (centres unmarked) , can you help?
4.70 to 6.30

Looking for the measured pIC50 of "COc1cccc(-c2cccc3c2CC[C@@H]3Oc2cc(OCc3cncc(C#N)c3)c(CNCc3noc(=O)[nH]3)cc2Cl)c1F" , can you help?
4.70 to 6.30

Looking for the measured pIC50 of "Nc1ncc(COc2cc(O[C@H]3CCc4c(-c5ccccc5F)cccc43)c(Cl)cc2CN2CCC(O)CC2)cn1" , can you help?
6.30 to 7.00

Looking for the measured pIC50 of "N#Cc1cncc(COc2cc(O[C@H]3CCc4c(-c5ccccc5F)cccc43)c(Cl)cc2CNCP(=O)(O)O)c1" , can you help?
> 7.00

Looking for the measured pIC50 of "N#Cc1cncc(COc2cc(O[C@H]3CCc4c(-c5ccccc5F)cccc43)c(Cl)cc2CN2CC(O)C2)c1" , can you help?
> 7.00

Looking for the measured pIC50 of "N#Cc1cncc(COc2cc(O[C@H]3CCc4c(-c5ccccc5F)cccc43)c(Cl)cc2CN[C@@H](CCC(=O)O)C(=O)O)c1" , can you help?
> 7.00

Looking for the measured pIC50 of "OC1CCN(Cc2cc(Cl)c(O[C@H]3CCc4c(-c5ccccc5F)cccc43)cc2OCc2cccnc2)CC1" , can you help?
4.70 to 6.30

Looking for the measured pIC50 of "N#Cc1cncc(COc2cc(O[C@H]3CCc4c(-c5ccc6c(c5F)OCCO6)cccc43)c(Cl)cc2CN[C@@H](CO)C(=O)O)c1" , can you help?
> 7.00

Looking for the measured pIC50 of "C[C@@H](O)[C@H](NC(=O)CNCc1cc(Cl)c(O[C@H]2CCc3c(-c4ccccc4F)cccc32)cc1OCc1cncc(C#N)c1)C(=O)O" , can you help?
6.30 to 7.00

Looking for the measured pIC50 of N#Cc1cncc(COc2cc(O[C@H]3CCc4c(-c5ccccc5F)cccc43)c(Cl)cc2CN2CCC(O)C(F)(F)C2)c1 (some centres unmarked) , can you help?
4.70 to 6.30

Looking for the measured pIC50 of "N#Cc1cncc(COc2cc(O[C@H]3CCc4c(-c5ccccc5Cl)cccc43)c(Cl)cc2CN[C@@H](CO)C(=O)O)c1" , can you help?
> 7.00

Looking for the measured pIC50 of "N#Cc1cccc(-c2cc(O[C@H]3CCc4c(-c5ccccc5F)cccc43)c(Cl)cc2CN[C@@H](CO)C(=O)O)c1" , can you help?
6.30 to 7.00

Looking for the measured pIC50 of N#Cc1cncc(COc2cc(OC3CCc4c(-c5ccccc5)cccc43)c(Cl)cc2CNC[C@@H](O)CC(=O)O)c1 (some centres unmarked) , can you help?
6.30 to 7.00

Looking for the measured pIC50 of N#Cc1cncc(COc2cc(OC3CCc4c(-c5ccccc5)cccc43)c(Cl)cc2CN2CCC2)c1 (centres unmarked) , can you help?
6.30 to 7.00

Looking for the measured pIC50 of "CCOc1cc(O[C@H]2CCc3c(-c4ccc5c(c4F)OCCO5)cccc32)c(Cl)cc1CN1CCC(O)CC1" , can you help?
4.70 to 6.30

Looking for the measured pIC50 of "CC1(O)CCN(Cc2cc(Cl)c(O[C@H]3CCc4c(-c5ccccc5F)cccc43)cc2OCc2cncc(C#N)c2)CC1" , can you help?
6.30 to 7.00

Looking for the measured pIC50 of CCOc1cc(O[C@H]2CCc3c(-c4ccccc4F)cccc32)c(Cl)cc1CN[C@H](C(=O)O)[C@@H](C)O [Example 2.157] , can you help?
6.30 to 7.00

Looking for the measured pIC50 of "C[C@@H](O)[C@H](NCc1cc(Cl)c(O[C@@H]2CCc3c(-c4ccccc4F)cccc32)cc1OCc1cncc(C#N)c1)C(=O)O" , can you help?
> 7.00

Looking for the measured pIC50 of "N#Cc1cccc(COc2cc(O[C@H]3CCc4c(-c5ccccc5F)cccc43)c(Cl)cc2CN2CCC(O)CC2)c1" , can you help?
4.70 to 6.30

Looking for the measured pIC50 of "C[C@@H](O)[C@@H](NCc1cc(Cl)c(O[C@H]2CCc3c(-c4ccccc4F)cccc32)cc1OCc1cncc(C#N)c1)C(=O)O" , can you help?
> 7.00
